# Tested on: J774.1
# Assay remarks: Inhibition of LPS-induced nitric oxide production in murine J774.1 cells by automated Griess assay
# Format: functional, cell-based
# Cond: Mus musculus
Measure name: pIC50
pIC50 here is simply -log10 of the concentration when that concentration is written in mol/L.

Consider the following illustrative entries.
Cpd smiles: CCCCCCCCCCCCCCCCS(=O)(=O)NCCCNCCCNCCCCNCCCNCCCNS(=O)(=O)CCCCCCCCCCCCCCCC
pIC50: 5.20
//
Cpd smiles: CCCCCCCCCCS(=O)(=O)NCCCN(CCCNCCCCNCCCN)CCCNS(=O)(=O)CCCCCCCCCC
pIC50: 5.96

Next compound, please.
Note pIC50 for the compound shown: "CCCCCCCCCCCCCCCCS(=O)(=O)NCCCN(CCCNCCCCNCCCN)CCCNS(=O)(=O)CCCCCCCCCCCCCCCC"
4.82

---

# Tested on: J774.1
# Assay remarks: Inhibition of LPS-induced nitric oxide production in murine J774.1 cells by automated Griess assay
# Assay type: functional, cell-based
# Cond: Mus musculus
# key: entry, value: IC50
Report the figure in nM without appending any unit label.

Consider the following illustrative entries.
Cpd smiles: CCCCCCCCCCCCS(=O)(=O)NCCCNCCCNCCCCNCCCN
Value: 390
--
Cpd smiles: CCCCCCCCCCCCS(=O)(=O)NCCCNCCCCNCCCN
Value: 1340
--
Cpd smiles: CCCCCCCCCCCCCCCCCCS(=O)(=O)NCCCNCCCNCCCCNCCCNCCCNS(=O)(=O)CCCCCCCCCCCCCCCCCC
Value: 4220
--
Cpd smiles: CCCCCCCCCCCCS(=O)(=O)NCCCNCCCNCCCCNCCCNCCCNS(=O)(=O)CCCCCCCCCCCC
Value: 5000
--
Cpd smiles: CCCCCCCCCCS(=O)(=O)NCCCNCCCNCCCCNCCCNCCCNS(=O)(=O)CCCCCCCCCC
Value: 692
--
Cpd smiles: CCCCCCCCCCS(=O)(=O)NCCCN(CCCNCCCNCCCCNCCCN)CCCNS(=O)(=O)CCCCCCCCCC
Value: 430
--
Cpd smiles: CCCCCCCCS(=O)(=O)NCCCNCCCCNCCCN
Value: 1440
--
Cpd smiles: CCCCCCCCCCCCCCCCCCS(=O)(=O)NCCCNCCCCNCCCN
Value: 480

Note IC50 for the compound shown: "CCCCCCCCCCCCCCCCS(=O)(=O)NCCCN(CCCNCCCNCCCCNCCCN)CCCNS(=O)(=O)CCCCCCCCCCCCCCCC"
5200

Note IC50 for the compound shown: "CCCCCCCCCCCCCCCCS(=O)(=O)NCCCOCCCCOCCCN"
30900

Note IC50 for the compound shown: "CCCCCCCCCCS(=O)(=O)NCCCNCCCCNCCCN"
4420

Note IC50 for the compound shown: "CCCCCCCCCCCCCCCCCCS(=O)(=O)NCCCNCCCNCCCCNCCCN"
230

Note IC50 for the compound shown: "CCCCCCCCCCCCS(=O)(=O)NCCCN(CCCNCCCCNCCCN)CCCNS(=O)(=O)CCCCCCCCCCCC"
2270

---

# Tested on: HEK293
# Assay remarks: Inhibition of LPS-induced NF-kappaB production in HEK293 cells
# Type: functional, cell-based
# Cond: Homo sapiens
Quick rule for you: IC50 under 400 nM gets 1 (yes), anything else gets 0 (no).

Previously resolved entries follow.
Cpd smiles: CCCCCCCCCCCCCCCCS(=O)(=O)NCCN(CCN)CCN
Assigned class: 1 (yes)

Cpd smiles: CCCCCCCC(=O)NCCCN(CCCNCCCCNCCCN)CCCNC(=O)CCCCCCC
Assigned class: 0 (no)

Cpd smiles: CCCCCCCCS(=O)(=O)NCCCNC/C=C/CNCCCN
Assigned class: 0 (no)

Cpd smiles: CCCCCCCCCCCCCCCCS(=O)(=O)NCCCNCCCNCCCCNCCCNCCCNS(=O)(=O)CCCCCCCCCCCCCCCC
Assigned class: 0 (no)

Cpd smiles: CCCCCCCCCCCCS(=O)(=O)NCCCNC/C=C/CNCCCN
Assigned class: 0 (no)

Threshold test, IC50 < 400 nM: "CCCCCCCCCCCCCCCCS(=O)(=O)NCCCNCCCCNCCCN"
1 (yes)

Where these numbers come from: ChEMBL document CHEMBL1141383
